TGT: T1, corticotropin-releasing hormone (CRH) peptide (human and mouse (same sequence), not fully specified)
T1 peptide: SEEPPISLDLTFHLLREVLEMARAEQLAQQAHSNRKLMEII
ASSAY: cell-based or functional assay
Measured hCRHR1 Luciferase Reporter Assay IC50 values are reported for all entries that follow.
Express your answer in nM, writing the number without its unit.

Example entries and their recorded answers appear below.
| BINDER | hCRHR1 Luciferase Reporter Assay IC50 (nM) |
| --- | --- |
| PR302341-23 (antibody, human IgG1, kappa, V domains shown) VH: QVQLVQSGAEVKKPGASVKVSCKASGYTFTDYFMKWVRQAPGQGLEWMGVINPNNGDIFYNQKFKGRVTMTVDKSISTAYMELSRLRSDDTAVYYCARGTDRALFAYWGQGTLVTVSS VL: DVVMTQSPLSLPVTLGQPASISCRSGQSIVHSDGNTYLEWYQQRPGQSPRLLIYKVSNRFSGVPDRFSGSGSGTDFTLKISRVEAEDLGVYYCFQGSHIPWTFGGGTKVEIKR | 0.043 |
| PR302341-16 (antibody, human IgG1, kappa, V domains shown) VH: QVQLVQSGAEVKKPGASVKVSCKASGYTFTDYFMKWVRQAPGQRLEWMGVINPNNGDIFYNQKFKGRVTITVDKSASTAYMELSSLRSEDTAVYYCARGTDRALFAYWGQGTLVTVSS VL: DVLMTQTPLSLPVSLGDQASISCRSGQSIVHSDGNTYLEWYLQRPGQSPRLLIYKVSNRFSGVPDRFSGSGSGTDFTLKISRVGAEDLGIYYCFQGSHIPWTFGGGTKLEVKR | 0.225 |

# evaluate next
INPUT: Quick check: hCRHR1 Luciferase Reporter Assay IC50 of PR302341-1 (antibody, human IgG1, kappa, V domains shown) VH: EVQLQQSGPELVKPGASVKMSCKASGYTFTDYFMKWVKQSHGESLEWIGVINPNNGDIFYNQKFKGKATLTVDKSSSTAFMQLNSLTSEDSAVYSCARGTDRALFAYWGQGTLVAVSA VL: DVVMTQSPLSLPVTLGQPASISCRSGQSIVHSDGNTYLEWFQQRPGQSPRRLIYKVSNRFSGVPDRFSGSGSGTDFTLKISRVEAEDVGVYYCFQGSHIPWTFGGGTKVEIKR ?
OUTPUT: 0.397
